These compounds were tested on PARP1 GST (Homo sapiens (Human), UniProt P09874); log10 of IC50 is the recorded read-out.
Sequence (P09874 whole entry): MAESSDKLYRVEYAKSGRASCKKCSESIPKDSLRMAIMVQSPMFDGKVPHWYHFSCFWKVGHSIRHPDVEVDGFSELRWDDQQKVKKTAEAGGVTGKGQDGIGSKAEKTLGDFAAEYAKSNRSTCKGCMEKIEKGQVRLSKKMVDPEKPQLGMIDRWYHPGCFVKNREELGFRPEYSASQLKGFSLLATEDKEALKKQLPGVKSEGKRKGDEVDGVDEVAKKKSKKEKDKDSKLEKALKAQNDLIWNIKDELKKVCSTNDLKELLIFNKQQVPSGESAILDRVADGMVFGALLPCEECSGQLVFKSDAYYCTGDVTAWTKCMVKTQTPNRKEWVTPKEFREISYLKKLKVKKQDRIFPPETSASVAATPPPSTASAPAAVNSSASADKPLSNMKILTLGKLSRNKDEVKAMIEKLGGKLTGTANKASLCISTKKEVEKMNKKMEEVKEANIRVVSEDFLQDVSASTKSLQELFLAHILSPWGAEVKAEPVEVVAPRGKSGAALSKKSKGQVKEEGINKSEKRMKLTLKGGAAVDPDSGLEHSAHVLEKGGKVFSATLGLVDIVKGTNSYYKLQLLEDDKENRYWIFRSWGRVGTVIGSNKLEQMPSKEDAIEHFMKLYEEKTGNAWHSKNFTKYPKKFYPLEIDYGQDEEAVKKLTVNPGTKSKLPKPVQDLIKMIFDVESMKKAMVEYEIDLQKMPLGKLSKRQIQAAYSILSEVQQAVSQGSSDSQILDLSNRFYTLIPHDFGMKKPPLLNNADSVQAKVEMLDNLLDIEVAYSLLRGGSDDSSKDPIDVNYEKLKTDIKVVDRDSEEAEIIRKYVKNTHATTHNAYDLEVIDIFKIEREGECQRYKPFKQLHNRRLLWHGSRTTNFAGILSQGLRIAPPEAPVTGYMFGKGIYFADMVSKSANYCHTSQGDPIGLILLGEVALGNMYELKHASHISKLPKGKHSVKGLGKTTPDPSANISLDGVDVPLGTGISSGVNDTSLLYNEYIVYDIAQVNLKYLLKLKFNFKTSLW
Please be aware that the numbers have been log10-transformed from IC50 in nM.

The compound listed as "C[C@@H]1CN(C(=O)[C@H]2C[C@@H](c3c[nH]c(=O)c(C(F)(F)F)c3)C2)CCN1c1ncc(C(F)(F)F)cn1" has a reported log10 of IC50 of 2.70

The compound listed as "C[C@H]1CN(c2ncc(C(F)(F)F)cn2)CCN1C(=O)[C@H]1C[C@@H](Cc2c[nH]c(=O)c(C(F)(F)F)c2)C1" has a reported log10 of IC50 of 2.31

The compound listed as "C[C@@H]1CN(c2ncc(C(F)(F)F)cn2)C[C@H](C)N1C(=O)[C@H]1C[C@@H](c2c[nH]c(=O)c(C(F)(F)F)c2)C1" has a reported log10 of IC50 of 3.70

The compound listed as "C[C@@H]1CN(c2ncc(C(F)(F)F)cn2)CCN1C(=O)[C@H]1C[C@H](c2c[nH]c(=O)c(C(F)(F)F)c2)C1" has a reported log10 of IC50 of 3.31

The compound listed as "C[C@H]1CN(C(=O)[C@H]2C[C@@H](Cc3c[nH]c(=O)c(C(F)(F)F)c3)C2)CCN1c1ncc(C(C)(C)O)cn1" has a reported log10 of IC50 of 3.33

The compound listed as "C[C@@H]1CN(C(=O)[C@H]2C[C@@H](Cc3c[nH]c(=O)c(C(F)(F)F)c3)C2)CCN1c1ncc(C(C)(C)O)cn1" has a reported log10 of IC50 of 2.94

* * *

- systemUnderTest: UniProt Q7Z3E1
- Sequence (Q7Z3E1 441-657): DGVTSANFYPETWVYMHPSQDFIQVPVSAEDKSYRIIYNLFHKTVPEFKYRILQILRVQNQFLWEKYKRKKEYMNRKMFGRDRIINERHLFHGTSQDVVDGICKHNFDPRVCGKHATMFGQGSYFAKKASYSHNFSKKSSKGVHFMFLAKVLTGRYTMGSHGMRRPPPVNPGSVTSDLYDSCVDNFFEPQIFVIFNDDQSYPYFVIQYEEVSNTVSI
- method: TR-FRET binding assay, TIPARP
- experimentalConditions: TR-FRET, Probe 1, 2 hours incubation
Exercise: for every item that follows, state its recorded pIC50.
# pIC50 is unitless: minus log10 of the molar concentration; print number only

The compound listed as C[C@@H]1CN(C(=O)[C@H]2C[C@@H](Cc3c[nH]c(=O)c(C(F)(F)F)c3)C2)CCN1c1ncc(C(C)(C)O)cn1 [Example 18] has a reported pIC50 of 8.23

The compound listed as C[C@H]1CN(C(=O)[C@H]2C[C@@H](c3c[nH]c(=O)c(C(F)(F)F)c3)C2)CCN1c1ncc(C(C)(C)O)cn1 [Example 10] has a reported pIC50 of 8.00

The compound listed as O=c1[nH]cc([C@H]2C[C@@H](C(=O)N3CCN(c4ncc(C(F)(F)F)cn4)CC3)C2)cc1C(F)(F)F [Example 23] has a reported pIC50 of 8.56

The compound listed as C[C@H]1CN(C(=O)[C@H]2C[C@@H](c3c[nH]c(=O)c(C(F)(F)F)c3)C2)CCN1c1ncc(C(F)(F)F)cn1 [Example 8] has a reported pIC50 of 8.06

The compound listed as C[C@H]1CN(c2ncc(C(F)(F)F)cn2)CCN1C(=O)[C@H]1C[C@@H](Cc2c[nH]c(=O)c(C(F)(F)F)c2)C1 [Example 17] has a reported pIC50 of 8.30

The compound listed as C[C@@H]1CN(c2ncc(C(C)(C)O)cn2)CCN1C(=O)[C@H]1C[C@@H](c2c[nH]c(=O)c(C(F)(F)F)c2)C1 [Example 9] has a reported pIC50 of 8.36

The compound listed as C[C@H]1CN(c2ncc(C(F)(F)F)cn2)CCN1C(=O)[C@H]1C[C@@H](c2c[nH]c(=O)c(C(F)(F)F)c2)C1 [Example 6] has a reported pIC50 of 8.46

* * *

- systemUnderTest: UniProt Q7Z3E1
pIC50: −log10 of the molar value.
Mark rule not met for pIC50 values under 8, and rule met for everything at or above.

Item CC(C)(O)c1cnc(N2CCN(C(=O)[C@H]3C[C@@H](c4c[nH]c(=O)c(C(F)(F)F)c4)C3)CC2)nc1 [Example 28] with pIC50 of 8 or above? rule met

Item C[C@@H]1CN(c2ncc(C(C)(C)O)cn2)CCN1C(=O)[C@H]1C[C@@H](Cc2c[nH]c(=O)c(C(F)(F)F)c2)C1 [Example 19] with pIC50 of 8 or above? rule met

Item C[C@@H]1CN(C(=O)[C@H]2C[C@@H](c3c[nH]c(=O)c(C(F)(F)F)c3)C2)CCN1c1ncc(C(C)(C)O)cn1 [Example 7] with pIC50 of 8 or above? rule met

Item C[C@@H]1CN(C(=O)[C@H]2C[C@H](c3c[nH]c(=O)c(C(F)(F)F)c3)C2)C[C@H](C)N1c1ncc(C(F)(F)F)cn1 [Example 24] with pIC50 of 8 or above? rule not met

Item C[C@@H]1CN(c2ncc(C(F)(F)F)cn2)CCN1C(=O)[C@H]1C[C@@H](c2c[nH]c(=O)c(C(F)(F)F)c2)C1 [Example 1] with pIC50 of 8 or above? rule met

* * *

- Tested on: NCI-H1373 cells
- method: NCI-H1373 CellTiter-Glo cell assay for TIPARP inhibition
- Format: cell-based, human
- experimentalConditions: Homo sapiens, NCI-H1373, 144 h; 6 days, 100 nM 10-Cl-BBQ in medium; read-out: NCI-H1373 CTG EC50
reportedEndpoint: pEC50
# pEC50 is unitless: minus log10 of the molar concentration; print number only

Entry "C[C@@H]1CN(C(=O)[C@H]2C[C@@H](Cc3c[nH]c(=O)c(C(F)(F)F)c3)C2)CCN1c1ncc(C(F)(F)F)cn1" , tested on NCI-H1373 cells, has a reported pEC50 of 7.83

Entry "C[C@@H]1CN(C(=O)[C@H]2C[C@@H](Cc3c[nH]c(=O)c(C(F)(F)F)c3)C2)C[C@H](C)N1c1ncc(C(C)(C)O)cn1" , tested on NCI-H1373 cells, has a reported pEC50 of 7.57

Entry "C[C@@H]1CN(c2ncc(C(C)(C)O)cn2)CCN1C(=O)[C@H]1C[C@@H](Cc2c[nH]c(=O)c(C(F)(F)F)c2)C1" , tested on NCI-H1373 cells, has a reported pEC50 of 7.15

Entry "C[C@H]1CN(c2ncc(C(C)(C)O)cn2)CCN1C(=O)[C@H]1C[C@@H](c2c[nH]c(=O)c(C(F)(F)F)c2)C1" , tested on NCI-H1373 cells, has a reported pEC50 of 6.47

Entry "C[C@@H]1CN(C(=O)[C@H]2C[C@@H](c3c[nH]c(=O)c(C(F)(F)F)c3)C2)C[C@H](C)N1c1ncc(C(F)(F)F)cn1" , tested on NCI-H1373 cells, has a reported pEC50 of 7.95

Entry "C[C@@H]1CN(c2ncc(C(C)(C)O)cn2)CCN1C(=O)[C@H]1C[C@@H](c2c[nH]c(=O)c(C(F)(F)F)c2)C1" , tested on NCI-H1373 cells, has a reported pEC50 of 7.17

Entry "C[C@H]1CN(c2ncc(C(F)(F)F)cn2)CCN1C(=O)[C@H]1C[C@@H](c2c[nH]c(=O)c(C(F)(F)F)c2)C1" , tested on NCI-H1373 cells, has a reported pEC50 of 7.34

Entry "C[C@H]1CN(C(=O)[C@H]2C[C@@H](Cc3c[nH]c(=O)c(C(F)(F)F)c3)C2)CCN1c1ncc(C(F)(F)F)cn1" , tested on NCI-H1373 cells, has a reported pEC50 of 7.72

Entry "C[C@H]1CN(C(=O)[C@H]2C[C@@H](c3c[nH]c(=O)c(C(F)(F)F)c3)C2)CCN1c1ncc(C(C)(C)O)cn1" , tested on NCI-H1373 cells, has a reported pEC50 of 6.55

Entry "C[C@@H]1CN(C(=O)[C@H]2C[C@@H](c3c[nH]c(=O)c(C(F)(F)F)c3)C2)CCN1c1ncc(C(C)(C)O)cn1" , tested on NCI-H1373 cells, has a reported pEC50 of 7.14

Entry "C[C@@H]1CN(C(=O)[C@H]2C[C@@H](Cc3c[nH]c(=O)c(C(F)(F)F)c3)C2)C[C@H](C)N1c1ncc(C(F)(F)F)cn1" , tested on NCI-H1373 cells, has a reported pEC50 of 7.96

Entry "C[C@@H]1CN(C(=O)[C@H]2C[C@@H](c3c[nH]c(=O)c(C(F)(F)F)c3)C2)CCN1c1ncc(C(F)(F)F)cn1" , tested on NCI-H1373 cells, has a reported pEC50 of 8.02

Entry "C[C@H]1CN(C(=O)[C@H]2C[C@@H](c3c[nH]c(=O)c(C(F)(F)F)c3)C2)CCN1c1ncc(C(F)(F)F)cn1" , tested on NCI-H1373 cells, has a reported pEC50 of 7.25

Entry "C[C@@H]1CN(c2ncc(C(F)(F)F)cn2)CCN1C(=O)[C@H]1C[C@@H](c2c[nH]c(=O)c(C(F)(F)F)c2)C1" , tested on NCI-H1373 cells, has a reported pEC50 of 7.76

Entry "C[C@H]1CN(c2ncc(C(C)(C)O)cn2)CCN1C(=O)[C@H]1C[C@@H](Cc2c[nH]c(=O)c(C(F)(F)F)c2)C1" , tested on NCI-H1373 cells, has a reported pEC50 of 6.80

Entry "C[C@H]1CN(C(=O)[C@H]2C[C@@H](Cc3c[nH]c(=O)c(C(F)(F)F)c3)C2)CCN1c1ncc(C(C)(C)O)cn1" , tested on NCI-H1373 cells, has a reported pEC50 of 7.09

Entry "C[C@@H]1CN(C(=O)[C@H]2C[C@@H](c3c[nH]c(=O)c(C(F)(F)F)c3)C2)C[C@H](C)N1c1ncc(C(C)(C)O)cn1" , tested on NCI-H1373 cells, has a reported pEC50 of 7.46

Entry "C[C@H]1CN(c2ncc(C(F)(F)F)cn2)CCN1C(=O)[C@H]1C[C@@H](Cc2c[nH]c(=O)c(C(F)(F)F)c2)C1" , tested on NCI-H1373 cells, has a reported pEC50 of 7.47

Entry "C[C@@H]1CN(c2ncc(C(F)(F)F)cn2)CCN1C(=O)[C@H]1C[C@@H](Cc2c[nH]c(=O)c(C(F)(F)F)c2)C1" , tested on NCI-H1373 cells, has a reported pEC50 of 7.53

Entry "C[C@@H]1CN(C(=O)[C@H]2C[C@@H](Cc3c[nH]c(=O)c(C(F)(F)F)c3)C2)CCN1c1ncc(C(C)(C)O)cn1" , tested on NCI-H1373 cells, has a reported pEC50 of 7.18

Entry "C[C@@H]1CN(c2ncc(C(F)(F)F)cn2)C[C@H](C)N1C(=O)[C@H]1C[C@@H](Cc2c[nH]c(=O)c(C(F)(F)F)c2)C1" , tested on NCI-H1373 cells, has a reported pEC50 of 7.48

Entry "C[C@@H]1CN(c2ncc(C(F)(F)F)cn2)C[C@H](C)N1C(=O)[C@H]1C[C@@H](c2c[nH]c(=O)c(C(F)(F)F)c2)C1" , tested on NCI-H1373 cells, has a reported pEC50 of 7.49
